# system: Intestinal-type alkaline phosphatase (Homo sapiens) (UniProt P09923)
# Sequence (P09923 whole entry, looked up): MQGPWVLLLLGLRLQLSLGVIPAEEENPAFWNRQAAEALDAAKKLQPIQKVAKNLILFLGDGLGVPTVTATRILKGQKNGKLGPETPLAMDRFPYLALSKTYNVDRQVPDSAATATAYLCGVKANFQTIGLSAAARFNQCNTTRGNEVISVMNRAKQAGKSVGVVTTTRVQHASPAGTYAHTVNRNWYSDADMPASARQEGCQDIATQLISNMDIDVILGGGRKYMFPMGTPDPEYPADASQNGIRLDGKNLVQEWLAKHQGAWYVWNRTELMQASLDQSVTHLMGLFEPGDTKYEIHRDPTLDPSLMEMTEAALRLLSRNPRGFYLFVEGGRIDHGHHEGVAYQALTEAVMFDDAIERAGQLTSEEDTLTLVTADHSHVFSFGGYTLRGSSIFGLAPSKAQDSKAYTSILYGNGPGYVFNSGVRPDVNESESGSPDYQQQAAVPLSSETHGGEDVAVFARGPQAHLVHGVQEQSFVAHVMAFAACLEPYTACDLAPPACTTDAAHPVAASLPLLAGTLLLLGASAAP
# assay-text: human IAP activators, SAR follow-up, mouse IAP activator project, biochemical, human enzyme for mouse series (AID 493145)
# setup-conditions: purified human intestinal alkaline phosphatase, enzymatic activity
Activity calls are given as the source filed them. How the calls were made is not given here.
Select the correct class. Options are active, inactive and nothing else.

Example cases with answers are listed next.
COc1cc(C(=O)NNC(=O)C2CC2)cc(OC)c1OC
inactive
COc1ccc(CNC(=O)CSc2sc3c(O)cc(=O)[nH]c3c2C#N)cc1
inactive
N#Cc1c(SCC(=O)Nc2nc3ccc(Br)cc3s2)sc2c(O)cc(=O)[nH]c12
inactive
CC(C)c1ccc(NC(=O)CCNS(=O)(=O)c2ccc3[nH]c(=O)oc3c2)cc1
inactive
Cc1ccc(/C=N/NC(=O)c2cc(O)c(O)c(O)c2)cc1
inactive

# fetch the recorded call for `CSc1cccc(NC(=O)CCNS(=O)(=O)c2ccc3[nH]c(=O)oc3c2)c1` here
inactive

# fetch the recorded call for `COc1ccc(Cl)cc1NC(=O)CSc1sc2c(O)cc(=O)[nH]c2c1C#N` here
inactive

# fetch the recorded call for `FC(F)(F)c1cccc(NC(=S)NCCC(c2ccccc2)c2ccccc2)c1` here
active

# fetch the recorded call for `N#Cc1cccc(NC(=O)CCNS(=O)(=O)c2ccc3[nH]c(=O)oc3c2)c1` here
inactive

# fetch the recorded call for `O=C(CCN1C(=O)/C(=C/c2ccco2)SC1=S)Nc1ccc(O)cc1C(=O)O` here
inactive

# fetch the recorded call for COc1ccc(NC(=O)C(CC(C)C)NS(=O)(=O)c2ccc3[nH]c(=O)oc3c2)cc1 (stereo unspecified) here
inactive

----------
# system: UniProtKB P09923
# assay-text: human IAP activators, SAR follow-up, mouse IAP activator project, biochemical, human enzyme for mouse series (AID 493145)
# setup-conditions: purified human intestinal alkaline phosphatase, enzymatic activity
Activity calls are given as the source filed them. The rule behind the calls is not given here.
Select the correct class. Options are y = active, n = inactive and nothing else.

CN(C(=O)CN1C(=O)/C(=C\c2ccco2)SC1=S)C1CCS(=O)(=O)C1 (stereo unspecified)
n

# fetch the recorded call for `Cc1ccc(Cl)cc1NC(=O)CSc1sc2c(O)cc(=O)[nH]c2c1C#N` here
n

# fetch the recorded call for `O=C(c1ccco1)N1CCN(S(=O)(=O)c2ccc3[nH]c(=O)oc3c2)CC1` here
n

# fetch the recorded call for `COc1ccc(N2CCN(C(=O)CN3C(=O)/C(=C\c4ccco4)SC3=S)CC2)cc1` here
n

# fetch the recorded call for `Cc1ccc(C)c(NC(=O)CCNS(=O)(=O)c2ccc3[nH]c(=O)oc3c2)c1` here
n

----------
# system: Intestinal-type alkaline phosphatase (Homo sapiens) (UniProt P09923)
# assay-text: human IAP activators, SAR follow-up, mouse IAP activator project, biochemical, human enzyme for mouse series (AID 493145)
# setup-conditions: purified human intestinal alkaline phosphatase, enzymatic activity
The source made the active and inactive calls. No rule for the calls is given here.
metric-name: EC50

Example results:
Cc1ccc(NC(=O)CSc2sc3c(O)cc(=O)[nH]c3c2C#N)c(F)c1
> 100 µM (inactive)
O=C(CN1C(=O)/C(=C/c2ccco2)SC1=S)NC1C=CS(=O)(=O)C1 (configuration not stated)
52.6 µM
CC(C(=O)Nc1ccccc1C(=O)O)N1C(=O)/C(=C\c2ccco2)SC1=S (configuration not stated)
> 100 µM (inactive)
Cc1cc(NC(=O)CSc2sc3c(O)cc(=O)[nH]c3c2C#N)ccc1Br
> 100 µM (inactive)
O=C(N/N=C/C1CC2CCC1C2)c1cc(O)c(O)c(O)c1 (configuration not stated)
> 100 µM (inactive)
S=C(NCCC(c1ccccc1)c1ccccc1)Nc1ccc(Cl)cc1Cl
45.1 µM
COc1cc(C(=O)NN=Cc2ccccn2)cc(OC)c1OC
30.8 µM
O=C(CCN1C(=O)/C(=C\c2ccco2)SC1=S)Nc1ccc(C(=O)O)c(O)c1
> 100 µM (inactive)
O=C(CN1C(=O)/C(=C/c2ccco2)SC1=S)N[C@@H]1CSC[C@@H]1O
> 100 µM (inactive)
O=C(NCCc1ccc(Cl)cc1)C1CCCN(S(=O)(=O)c2ccc3[nH]c(=O)oc3c2)C1 (configuration not stated)
> 100 µM (inactive)

Entry `CCN(CC)C(=O)CSc1sc2c(O)cc(=O)[nH]c2c1C#N` : EC50 on Intestinal-type alkaline phosphatase (Homo sapiens) (UniProt P09923) = > 100 µM (inactive)

Entry `COC(=O)c1ccc(C)c(NC(=O)CSc2sc3c(O)cc(=O)[nH]c3c2C#N)c1` : EC50 on Intestinal-type alkaline phosphatase (Homo sapiens) (UniProt P09923) = > 100 µM (inactive)

Entry `N#Cc1c(SCC(=O)NCc2ccc3c(c2)OCO3)sc2c(O)cc(=O)[nH]c12` : EC50 on Intestinal-type alkaline phosphatase (Homo sapiens) (UniProt P09923) = > 100 µM (inactive)

Entry `Cc1ccc(NC(=O)CCNS(=O)(=O)c2ccc3[nH]c(=O)oc3c2)cc1` : EC50 on Intestinal-type alkaline phosphatase (Homo sapiens) (UniProt P09923) = > 100 µM (inactive)

Entry `CC(C)NC(=O)CSc1sc2c(O)cc(=O)[nH]c2c1C#N` : EC50 on Intestinal-type alkaline phosphatase (Homo sapiens) (UniProt P09923) = > 100 µM (inactive)

Entry CC(C(=O)Nc1ccc(C(=O)O)c(O)c1)N1C(=O)/C(=C\c2ccco2)SC1=S (configuration not stated) : EC50 on Intestinal-type alkaline phosphatase (Homo sapiens) (UniProt P09923) = > 100 µM (inactive)

Entry `O=C(CCCN1C(=O)/C(=C/c2ccco2)SC1=S)Nc1ccccc1` : EC50 on Intestinal-type alkaline phosphatase (Homo sapiens) (UniProt P09923) = > 100 µM (inactive)

----------
# system: UniProt:P09923
# assay-text: human IAP activators, SAR follow-up, mouse IAP activator project, biochemical, human enzyme for mouse series (AID 493145)
# setup-conditions: purified human intestinal alkaline phosphatase, enzymatic activity
Active and inactive are the calls of the source. How the calls were made is not given here.
Select the correct class. Options are yes (1) for active, no (0) for inactive and nothing else.

Example cases with answers are listed next.
O=[N+]([O-])c1ccc(NC(=S)NCCC(c2ccccc2)c2ccccc2)cc1
no (0)
COc1ccc(OC)c(NC(=O)CSc2sc3c(O)cc(=O)[nH]c3c2C#N)c1
no (0)

# fetch the recorded call for NS(=O)(=O)c1ccc(-c2ccc(/C=C3\SC(=S)N(C4CCS(=O)(=O)C4)C3=O)o2)cc1 (stereo unspecified) here
no (0)

# fetch the recorded call for `COc1ccc(CNC(=O)CSc2sc3c(O)cc(=O)[nH]c3c2C#N)cc1OC` here
no (0)

# fetch the recorded call for `O=C(N/N=C/c1ccsc1)c1cc(O)c(O)c(O)c1` here
no (0)

# fetch the recorded call for `N#Cc1c(SCC(=O)Nc2nccs2)sc2c(O)cc(=O)[nH]c12` here
no (0)

# fetch the recorded call for `Cc1csc(NC(=O)CSc2sc3c(O)cc(=O)[nH]c3c2C#N)n1` here
no (0)

# fetch the recorded call for `CCCSc1nnc(NC(=O)CSc2sc3c(O)cc(=O)[nH]c3c2C#N)s1` here
no (0)

# fetch the recorded call for `O=C(CCNS(=O)(=O)c1ccc2[nH]c(=O)oc2c1)Nc1ccccc1` here
no (0)

# fetch the recorded call for `COc1ccccc1NC(=O)CSc1sc2c(O)cc(=O)[nH]c2c1C#N` here
no (0)

# fetch the recorded call for `N#Cc1cccc(NC(=O)CSc2sc3c(O)cc(=O)[nH]c3c2C#N)c1` here
no (0)

# fetch the recorded call for `O=C(CN1C(=O)/C(=C/c2ccco2)SC1=S)Nc1ccc(O)c(C(=O)O)c1` here
no (0)

# fetch the recorded call for `N#Cc1c(SCC(=O)Nc2nncs2)sc2c(O)cc(=O)[nH]c12` here
no (0)

# fetch the recorded call for CC(C)C(C(=O)NC1CCS(=O)(=O)C1)N1C(=O)/C(=C\c2ccco2)SC1=S (stereo unspecified) here
no (0)

# fetch the recorded call for CC(C(=O)Nc1ccc(C(=O)O)cc1)N1C(=O)/C(=C\c2ccco2)SC1=S (stereo unspecified) here
no (0)

# fetch the recorded call for `CCOc1ccc2nc(NC(=O)CN(C)S(=O)(=O)c3ccc4[nH]c(=O)oc4c3)sc2c1` here
no (0)

# fetch the recorded call for `COc1ccc(NC(=O)CCNS(=O)(=O)c2ccc3[nH]c(=O)oc3c2)cc1Cl` here
no (0)

# fetch the recorded call for `CCSc1nnc(NC(=O)CSc2sc3c(O)cc(=O)[nH]c3c2C#N)s1` here
no (0)

# fetch the recorded call for `COc1cc(C(=O)NNC(=S)NC(=O)c2ccccc2C)cc(OC)c1OC` here
yes (1)

# fetch the recorded call for `O=C(CN1C(=O)/C(=C\c2ccco2)SC1=S)Nc1ccccc1C(=O)O` here
no (0)

# fetch the recorded call for `O=C(CN1C(=O)/C(=C\c2ccco2)SC1=S)Nc1cccc(C(=O)O)c1` here
no (0)
